// provenance: the kinase profiling compilation of Christmann-Franck et al. (2016)

assayed.target: RAF1 (human) (UniProt P04049)
Sequence (P04049 whole entry, looked up): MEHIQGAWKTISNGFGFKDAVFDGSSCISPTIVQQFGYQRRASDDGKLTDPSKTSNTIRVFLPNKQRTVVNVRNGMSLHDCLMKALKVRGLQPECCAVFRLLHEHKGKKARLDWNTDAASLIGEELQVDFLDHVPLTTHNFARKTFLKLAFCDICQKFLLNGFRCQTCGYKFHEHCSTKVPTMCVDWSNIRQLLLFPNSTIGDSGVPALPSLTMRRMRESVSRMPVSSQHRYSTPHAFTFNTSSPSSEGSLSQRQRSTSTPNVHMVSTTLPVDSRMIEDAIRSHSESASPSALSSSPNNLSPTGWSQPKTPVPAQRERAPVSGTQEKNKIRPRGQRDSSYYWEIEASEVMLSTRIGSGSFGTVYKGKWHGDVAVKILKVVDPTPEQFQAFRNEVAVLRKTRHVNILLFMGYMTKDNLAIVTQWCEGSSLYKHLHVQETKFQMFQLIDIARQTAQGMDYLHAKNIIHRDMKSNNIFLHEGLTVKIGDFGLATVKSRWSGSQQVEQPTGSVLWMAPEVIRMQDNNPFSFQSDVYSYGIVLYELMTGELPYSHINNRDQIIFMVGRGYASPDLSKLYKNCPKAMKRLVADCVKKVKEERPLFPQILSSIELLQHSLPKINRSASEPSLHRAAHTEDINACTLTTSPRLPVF
test.method.notes: radiometric filter-binding kinase assay, Kinase HotSpot
test.context: compound 0.5 µM; ATP 10 µM
Assign class by residual activity: not lower than 90% means label 1; lower than 90% means label 0.

# compound, assayed.target, class.label
data = [
    ("CS(=O)c1ccc(-c2nc(-c3ccc(F)cc3)c(-c3ccncc3)[nH]2)cc1 (stereo unspecified)", "RAF1 (human) (UniProt P04049)", "label 0"),
    ("Clc1ccc(Nc2nnc(Cc3ccncc3)c3ccccc23)cc1", "RAF1 (human) (UniProt P04049)", "label 1"),
    ("C#Cc1cccc(Nc2ncnc3cc(OCCOC)c(OCCOC)cc23)c1", "RAF1 (human) (UniProt P04049)", "label 1"),
    ("O=C(Nc1ccc(Cl)cc1)c1ccccc1NCc1ccncc1", "RAF1 (human) (UniProt P04049)", "label 0"),
    ("Oc1ccc(-c2nc(-c3ccc(F)cc3)c(-c3ccncc3)[nH]2)cc1", "RAF1 (human) (UniProt P04049)", "label 0"),
    ("Nc1nc(Nc2ccc(S(N)(=O)=O)cc2)nn1C(=S)Nc1c(F)cccc1F", "RAF1 (human) (UniProt P04049)", "label 1"),
    ("O=c1cc(N2CCNCC2)oc2c(-c3ccccc3)cccc12", "RAF1 (human) (UniProt P04049)", "label 1"),
    ("Nc1n[nH]c2nnc(-c3c(-c4ccccc4)nn4ccccc34)cc12", "RAF1 (human) (UniProt P04049)", "label 1"),
    ("CC(C)n1cnc2c(Nc3cccc(Cl)c3)nc(NCCO)nc21", "RAF1 (human) (UniProt P04049)", "label 1"),
    ("COc1ccc(-c2cnc3c(-c4ccsc4)cnn3c2)cc1", "RAF1 (human) (UniProt P04049)", "label 1"),
    ("CC(C)(C)c1nc2c3ccc(F)cc3c3c(=O)[nH]ccc3c2[nH]1", "RAF1 (human) (UniProt P04049)", "label 1"),
    ("O=c1cc(-c2cccc3c2Sc2ccccc2S3)oc(N2CCOCC2)c1", "RAF1 (human) (UniProt P04049)", "label 1"),
    ("CCCNC(=O)Nc1ccc(Oc2ncnc3cc(OC)c(OC)cc23)cc1Cl", "RAF1 (human) (UniProt P04049)", "label 0"),
    ("CCN1/C(=C/C(C)=O)Sc2ccc(OC)cc21", "RAF1 (human) (UniProt P04049)", "label 1"),
    ("O=C1Cc2c([nH]c3ccc([N+](=O)[O-])cc23)-c2ccccc2N1", "RAF1 (human) (UniProt P04049)", "label 1"),
    ("COc1cc2nccc(Oc3ccc(NC(=S)NC(=O)c4ccccc4C)cc3)c2cc1OC", "RAF1 (human) (UniProt P04049)", "label 1"),
    ("Cc1cc2ncc(-c3ccccc3)nc2cc1C", "RAF1 (human) (UniProt P04049)", "label 1"),
    ("CC(C)[C@H](CO)Nc1nc(Nc2cccc(Cl)c2)c2ncn(C(C)C)c2n1", "RAF1 (human) (UniProt P04049)", "label 1"),
    ("Cc1ccc(NC(=O)c2ccc(CN3CCN(C)CC3)cc2)cc1Nc1nc(-c2cccnc2)cs1", "RAF1 (human) (UniProt P04049)", "label 0"),
    ("O=C1Nc2cc(Br)ccc2/C1=C1/Nc2ccccc2/C1=N\\O", "RAF1 (human) (UniProt P04049)", "label 1"),
    ("O=C(NC(NC(=S)Nc1ccc(F)c([N+](=O)[O-])c1)C(Cl)(Cl)Cl)C(c1ccccc1)c1ccccc1 (stereo unspecified)", "RAF1 (human) (UniProt P04049)", "label 1"),
    ("NC(=O)c1ccc(N(C(N)=O)c2c(F)cccc2F)nc1-c1ccc(F)cc1F", "RAF1 (human) (UniProt P04049)", "label 1"),
    ("Nc1nc(Nc2ccc(S(N)(=O)=O)cc2)nn1C(=O)c1c(F)cccc1F", "RAF1 (human) (UniProt P04049)", "label 1"),
]
